Biological target: human α7 nAChR (Homo sapiens, UniProt P36544)
Construct: expressed in transfected cells; host or cells: Xenopus oocytes
Sequence (P36544 23-502): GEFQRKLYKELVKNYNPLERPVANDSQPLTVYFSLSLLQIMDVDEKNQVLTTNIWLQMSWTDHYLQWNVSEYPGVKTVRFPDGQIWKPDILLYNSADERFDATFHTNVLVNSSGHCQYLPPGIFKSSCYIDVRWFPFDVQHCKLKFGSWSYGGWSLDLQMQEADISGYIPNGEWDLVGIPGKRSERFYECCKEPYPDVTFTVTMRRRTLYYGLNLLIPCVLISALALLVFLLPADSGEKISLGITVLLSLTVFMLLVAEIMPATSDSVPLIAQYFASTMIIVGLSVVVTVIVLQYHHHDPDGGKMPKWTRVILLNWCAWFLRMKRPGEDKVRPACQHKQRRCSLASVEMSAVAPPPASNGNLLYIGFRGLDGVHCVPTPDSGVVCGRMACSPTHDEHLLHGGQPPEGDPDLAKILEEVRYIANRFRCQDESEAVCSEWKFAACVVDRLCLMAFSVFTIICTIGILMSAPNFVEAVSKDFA
Assay: Two-electrode voltage clamping of human α7 nAChR expressed in Xenopus oocytes (net-charge / peak current relative to 60 μM ACh)
Type: cell-based
Conditions: 30 μM compound + 10 μM PNU-120596, relative to 60 μM ACh controls (n ≥ 4)
Protocol: Electrophysiology: The panel of compounds synthesized was assayed using human α7 nAChR expressed in Xenopus oocytes and two-electrode voltage clamping. The partial agonism activity was evaluated, quantified as net-charge for 30 μM applications of compounds, measured relative to the control response to applications of 60 μM ACh. […]
readout: PNU Response
Format: numeric value only, no unit, no commentary.

IN: Give human α7 nAChR (Homo sapiens, UniProt P36544) PNU Response for CC[N+]1(CC)CCN(c2ccc(Cl)cc2)CC1.[I-]
OUT: 18

IN: Give human α7 nAChR (Homo sapiens, UniProt P36544) PNU Response for CC[N+]1(CC)CCN(c2ccc(C#N)cc2)CC1.[I-]
OUT: 68

IN: Give human α7 nAChR (Homo sapiens, UniProt P36544) PNU Response for CC[N+]1(CC)CCN(c2ccc3ccccc3c2)CC1.[I-]
OUT: 16

IN: Give human α7 nAChR (Homo sapiens, UniProt P36544) PNU Response for CC[N+]1(CC)CCN(c2ccccc2C)CC1.[I-]
OUT: 16

IN: Give human α7 nAChR (Homo sapiens, UniProt P36544) PNU Response for CC[N+]1(CC)CCN(c2cccc(O)c2)CC1.[I-]
OUT: 31

IN: Give human α7 nAChR (Homo sapiens, UniProt P36544) PNU Response for CC[N+]1(CC)CCN(c2ccccc2Cl)CC1.[I-]
OUT: 37

---

Kindly supply the reported melting point values for the records listed here.

IN: Quick check: melting point of CCN1CCN(c2ccc(Br)cc2)CC1 ?
OUT: 85 to 85.5 °C

IN: Quick check: melting point of CCN1CCN(c2ccc(OC)cc2)CC1 ?
OUT: 56.6 to 57.8 °C

IN: Quick check: melting point of CCN1CCN(c2cccc(O)c2)CC1 ?
OUT: 150.3 to 151.6 °C

IN: Quick check: melting point of CCN1CCN(c2ccc3ccccc3c2)CC1 ?
OUT: 69.1 to 70 °C

IN: Quick check: melting point of CCN1CCN(c2ccc(F)cc2)CC1 ?
OUT: 30 to 30.5 °C

Taken from patent US11155551B2.
